- Tgt: SH2 domain-containing protein 1A (Homo sapiens) (UniProt O60880)
- Sequence (O60880 whole entry, the tested form may be a part): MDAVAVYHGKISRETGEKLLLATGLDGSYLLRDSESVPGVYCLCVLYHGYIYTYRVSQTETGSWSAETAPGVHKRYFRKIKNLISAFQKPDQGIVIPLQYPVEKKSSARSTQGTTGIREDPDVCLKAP
- Protocol Details: Inhibition of recombinant 6-His-tagged SLAM associated protein SH2 domain (unknown origin) expressed in Escherichia coli BL21(DE3) binding to biotinyl-KKSLTIpYAQVQK-NH2 attached to NeutrAvidin-coated plates using p-nitrophenyl phosphate as substrate at 10 uM after 1 hr relative to control
Parameter: fold change (FC)
Give the value as a plain number.

Solved cases below.
{"Smiles Notation": "NC(=O)[C@H](CO)NC(=O)[C@H](Cc1ccc2c(c1)COP(=O)(O)O2)NC(=O)OCC1c2ccccc2-c2ccccc21", "fold change (FC)": 0.9}
{"Smiles Notation": "NC(=O)[C@H](CC(=O)O)NC(=O)[C@H](Cc1ccc2c(c1)COP(=O)(O)O2)NC(=O)OCC1c2ccccc2-c2ccccc21", "fold change (FC)": 0.55}
{"Smiles Notation": "CC(C)(C)OC(=O)CC[C@H](NC(=O)[C@H](Cc1ccc2c(c1)COP(=O)(O)O2)NC(=O)OCC1c2ccccc2-c2ccccc21)C(N)=O", "fold change (FC)": 1.47}
{"Smiles Notation": "COC(=O)[C@H](Cc1ccc2c(c1)COP(=O)(O)O2)NC(=O)[C@H](Cc1c[nH]cn1)NC(=O)OCC1c2ccccc2-c2ccccc21", "fold change (FC)": 0.89}
{"Smiles Notation": "NC(=O)C[C@H](NC(=O)[C@H](Cc1ccc2c(c1)COP(=O)(O)O2)NC(=O)OCC1c2ccccc2-c2ccccc21)C(N)=O", "fold change (FC)": 1.29}
{"Smiles Notation": "COC(=O)[C@H](Cc1ccc2c(c1)COP(=O)(O)O2)NC(=O)[C@H](CCC(=O)NC(c1ccccc1)(c1ccccc1)c1ccccc1)NC(=O)OCC1c2ccccc2-c2ccccc21", "fold change (FC)": 1.11}

fold change (FC) lookup needed for "CC(C)(C)OC[C@H](NC(=O)[C@H](Cc1ccc2c(c1)COP(=O)(O)O2)NC(=O)OCC1c2ccccc2-c2ccccc21)C(N)=O" , thanks. 1.27

Returns the measured fold change (FC) for the input compound. Input: "CC(C)(C)OC(=O)C[C@H](NC(=O)[C@H](Cc1ccc2c(c1)COP(=O)(O)O2)NC(=O)OCC1c2ccccc2-c2ccccc21)C(N)=O" 1.24

Which fold change (FC) is reported for this compound? "NC(=O)CNC(=O)[C@H](Cc1ccc2c(c1)COP(=O)(O)O2)NC(=O)OCC1c2ccccc2-c2ccccc21" 1.07

What does the data say about its fold change (FC)? Entry: "CC[C@H](C)[C@H](NC(=O)[C@H](Cc1ccc2c(c1)COP(=O)(O)O2)NC(=O)OCC1c2ccccc2-c2ccccc21)C(N)=O" 1.05

Name the recorded fold change (FC) for "COC(=O)[C@H](Cc1ccc2c(c1)COP(=O)(O)O2)NC(=O)[C@H](CC(C)C)NC(=O)OCC1c2ccccc2-c2ccccc21" . 1.17

Field request: fold change (FC) | item: "COC(=O)[C@H](Cc1ccc2c(c1)COP(=O)(O)O2)NC(=O)[C@H](CCCNC(=N)N)NC(=O)OCC1c2ccccc2-c2ccccc21" 0.91

So what does the record say about fold change (FC) for "CC(C)(C)Oc1ccc(C[C@H](NC(=O)[C@H](Cc2ccc3c(c2)COP(=O)(O)O3)NC(=O)OCC2c3ccccc3-c3ccccc32)C(N)=O)cc1" ? 1.24

What fold change (FC) value was documented for this compound, "COC(=O)[C@H](Cc1ccc2c(c1)COP(=O)(O)O2)NC(=O)[C@H](Cc1ccc(OC(C)(C)C)cc1)NC(=O)OCC1c2ccccc2-c2ccccc21" ? 0.96
